Reference for the values: PubChem BioAssay (NCI)

# Test system: SNB-19 CNS
# Assay comment: NCI tumour cell line growth inhibition, 48 h
Quantity: TGI

1) O=Cc1c2c(cc3c1CC1(C3)Cc3cc4c(c(C=O)c3C1)CCCC4)CCCC2 : > 100 µM
2) O=S(=O)(O)c1ccc2c(N=Nc3cccc4ccccc34)c(O)ccc2c1 : > 100 µM
3) Cc1ccc2nc(N)[nH]c(=O)c2c1Sc1ccncc1 : > 100 µM
4) c1ccc(CN2CCC(=NN3CCCCC3)CC2)cc1 : > 100 µM
5) CC(=N/NC(=S)N1CCCCCC1)/C(C)=N\NC(=S)N1CCCCCC1 : 48.1 µM
6) C[C@@H]1C[C@H]2OC(=O)[C@@]3(C)CCC[C@@](C)([C@@H]23)[C@@]1(O)CCc1ccoc1 : > 100 µM
7) O=C1CC(c2ccc(Cl)cc2)C2(C(=O)NC(=S)NC2=O)C(c2ccc(Cl)cc2)C1 (configuration not stated) : 36.6 µM
8) CC(=O)Nc1ccccc1-c1nc2ccccc2nc1-c1ccccc1 : > 100 µM
9) COC(=O)c1cc(-c2ccc3ccccc3c2)[nH]c(=O)c1C#N : > 100 µM
10) O=[N+]([O-])c1cc(Br)cc2cc(Cl)cnc12 : > 100 µM
11) Clc1ccc(Nc2ncco2)cc1Cl : > 10 µM
12) C=CC(=O)N[C@@H]1CN(c2nc(Nc3cn(C)nc3OC)c3ncn(C)c3n2)C[C@H]1F : > 100 µM
13) CC1(C)OB(c2ccc(N(CCOS(C)(=O)=O)CCOS(C)(=O)=O)cc2)OC1(C)C : > 100 µM
14) CC[C@H](C)[C@H](NC(=O)N(CCC#N)CCN(CCN(C(=O)N[C@@H](Cc1ccccc1)C(=O)OC)c1ccccc1)C(=O)N[C@H](C(=O)OC)C(C)C)C(=O)OC : 35.9 µM
15) CCOC(=O)/C=C/n1c2ccccc2c(=O)c2cc(OC)ccc21 : > 100 µM
16) O=C1/C(=C/c2cccnc2)SC(=S)N1Cc1ccco1 : > 100 µM
17) C/C(NNC(=O)c1ccccc1O)=C1\C=Nc2ccccc2S1 : > 100 µM
